test system: Tyrosine-protein kinase ABL1 (Homo sapiens), P00519 [Y253F]; settings: at 0.1 µM
ASSAY METRIC: inhibition (%)
Answer in %, number only, no unit symbol.

These recorded examples may help you get a feel for the data.
> print(dat)
                                item.smiles  test.value
1  Nc1nc(-c2ccc3c(c2)C(=Cc2cc(Br)c(O)c(Br)c2)C(=O)N3)cs1       -2.03
2  O=C(Nc1n[nH]c2nc(-c3ccco3)c(Br)cc12)C1CC1           3
3    O=C1NC(=O)C(c2ccccc2Cl)=C1Nc1cccc(O)c1        3.51
4  CCCN1CCC=C(c2ccc(Nc3nc(Nc4ccccc4C(N)=O)c4cc[nH]c4n3)c(C)c2)C1        1.82
5  CCn1c(-c2nonc2N)nc2c(C#CC(C)(C)O)nc(OC[C@@H](N)c3ccccc3)cc21        0.12

For reference, reported inhibition for COc1cc2c(cc1Nc1nc(N3CCc4ccccc43)c3cc[nH]c3n1)N(C(=O)CN(C)C)CC2 stands at 1.21

inhibition for c1cnn2ncc(-c3ccnc(Nc4ccc5c(c4)OCCO5)n3)c2c1 is 9.16

Reported inhibition ( COc1ccc(-c2coc3ncnc(N)c23)cc1 ) = 4.98

# inhibition of O=C1NC(=O)C(c2cccc(Cl)c2)=C1Nc1ccc(O)c(Cl)c1 = -0.8

// field: inhibition; key: Fc1cccc(COc2ccc(Nc3ncnc4sc(-c5cccs5)cc34)cc2Cl)c1 ; value = 1.7

Measured inhibition, COC(=O)Nc1nc2cc(Oc3cccc(NC(=O)Nc4cc(C(F)(F)F)ccc4F)c3)ccc2[nH]1 : 5.16
